B1: TRIM43 (parent)
chain: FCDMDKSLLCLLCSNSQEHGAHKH

variants of: B1; test: protein stability index of a GFP-peptide fusion (GPS, HEK-293T) (PSI 1-6); higher = more stable; settings: c terminus: a fixed tail appended;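 note: lentivirally expressed fusions sorted by FACS into six bins by GFP to DsRed ratio, PSI derived from sequencing read proportions per bin multiplied by bin number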
Parameter threshold = 2. Response is TRUE when protein stability index meets or exceeds it, else FALSE.

Reference set, count: 10
K6E ... TRUE
S7P ... TRUE
E18D ... TRUE
H24E ... FALSE
G20F ... FALSE
F1L ... TRUE
N15Y ... TRUE
L9F ... FALSE
N15D ... TRUE
S16R ... TRUE

Check the entry `N15W` : does protein stability index equal or exceed 2?
FALSE

Check the entry `K6Q` : does protein stability index equal or exceed 2?
TRUE

Check the entry `H22A` : does protein stability index equal or exceed 2?
FALSE

Check the entry `H24Y` : does protein stability index equal or exceed 2?
FALSE

Check the entry `K23D` : does protein stability index equal or exceed 2?
TRUE

Check the entry `L8A` : does protein stability index equal or exceed 2?
TRUE

Check the entry `A21T` : does protein stability index equal or exceed 2?
TRUE

Where these numbers come from: the supplement of paper PMC10567573
